# TARGET OR TEST SYSTEM: FL huCD4 G4A (Homo sapiens, UniProt P01730, G4A)
# PROCEDURE SUMMARY: CADA down-modulation of cellular huCD4
# Assay type: cell-based
# ASSAY SETUP: read-out: Cellular huCD4 IC50 (μM) Mean, HEK293T, CADA 48h

COMPOUND	IC50 [µM]
C=C1CN(S(=O)(=O)c2ccc(C)cc2)CCCN(Cc2ccccc2)CCCN(S(=O)(=O)c2ccc(C)cc2)C1 [CADA, Cyclotriazadisulfonamide]	0.35

----------
# TARGET OR TEST SYSTEM: FL huCD4 A17V (Homo sapiens, UniProt P01730, A17V)
# PROCEDURE SUMMARY: CADA down-modulation of cellular huCD4
# Format: cell-based
# ASSAY SETUP: read-out: Cellular huCD4 IC50 (μM) Mean, HEK293T, CADA 48h
ENDPOINT NAME: IC50 (µM)

MOLECULE	READING
C=C1CN(S(=O)(=O)c2ccc(C)cc2)CCCN(Cc2ccccc2)CCCN(S(=O)(=O)c2ccc(C)cc2)C1 [CADA, Cyclotriazadisulfonamide]	1.33

----------
# TARGET OR TEST SYSTEM: FL huCD4 G25A (Homo sapiens, UniProt P01730, G25A)
# PROCEDURE SUMMARY: CADA down-modulation of cellular huCD4
# Assay type: cell-based
# ASSAY SETUP: read-out: Cellular huCD4 IC50 (μM) Mean, HEK293T, CADA 48h
ENDPOINT NAME: IC50

MOLECULE	READING
C=C1CN(S(=O)(=O)c2ccc(C)cc2)CCCN(Cc2ccccc2)CCCN(S(=O)(=O)c2ccc(C)cc2)C1 [CADA, Cyclotriazadisulfonamide]	0.61 µM

----------
# TARGET OR TEST SYSTEM: huCD4_1–32-YFP P20A (Homo sapiens, UniProt P01730, P20A)
# PROCEDURE SUMMARY: CADA inhibition of huCD4_1–32-YFP secretion
# Type: cell-based
# ASSAY SETUP: read-out: Secreted YFP IC50 (μM) Mean, HEK293T, CADA 48h
ENDPOINT NAME: IC50

MOLECULE	READING
C=C1CN(S(=O)(=O)c2ccc(C)cc2)CCCN(Cc2ccccc2)CCCN(S(=O)(=O)c2ccc(C)cc2)C1 [CADA, Cyclotriazadisulfonamide]	> 50 µM

----------
# TARGET OR TEST SYSTEM: FL huCD4 L12A (Homo sapiens, UniProt P01730, L12A)
# PROCEDURE SUMMARY: CADA down-modulation of cellular huCD4
# Type: cell-based
# ASSAY SETUP: read-out: Cellular huCD4 IC50 (μM) Mean, HEK293T, CADA 48h
ENDPOINT NAME: IC50 (µM)

COMPOUND	ENDPOINT NAME	READING
C=C1CN(S(=O)(=O)c2ccc(C)cc2)CCCN(Cc2ccccc2)CCCN(S(=O)(=O)c2ccc(C)cc2)C1 [CADA, Cyclotriazadisulfonamide]	IC50	0.07

----------
# TARGET OR TEST SYSTEM: FL huCD4 K32A (Homo sapiens, UniProt P01730, K32A)
# PROCEDURE SUMMARY: CADA down-modulation of cellular huCD4
# Assay type: cell-based
# ASSAY SETUP: read-out: Cellular huCD4 IC50 (μM) Mean, HEK293T, CADA 48h
ENDPOINT NAME: IC50 (µM)

COMPOUND	READING
C=C1CN(S(=O)(=O)c2ccc(C)cc2)CCCN(Cc2ccccc2)CCCN(S(=O)(=O)c2ccc(C)cc2)C1 [CADA, Cyclotriazadisulfonamide]	1.42

Just for reference, paper PMC6980386 is where these values come from.
